Items are presented alongside their recorded Emax.
MEASURED_ON: RIPK2 (KD)/XIAP (BIR2) (Homo sapiens)
Construct: made in house; host or cells: baculovirus-infected Sf9 cells
Sequence (O43353 1-310): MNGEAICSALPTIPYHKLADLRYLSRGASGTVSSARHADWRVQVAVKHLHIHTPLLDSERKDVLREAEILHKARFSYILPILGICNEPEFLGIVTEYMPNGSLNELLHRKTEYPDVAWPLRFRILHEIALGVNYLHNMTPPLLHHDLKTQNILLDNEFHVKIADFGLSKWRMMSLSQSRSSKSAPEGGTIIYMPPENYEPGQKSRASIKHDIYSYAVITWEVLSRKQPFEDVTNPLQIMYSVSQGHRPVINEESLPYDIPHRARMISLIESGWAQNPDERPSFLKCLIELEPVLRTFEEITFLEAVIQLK
PROTOCOL_NOTES: RIPK2-XIAP binding competition PPI assay (TR-FRET)
EXPERIMENTAL_CONDITIONS: 50 nM of GSK583 = -100% activity, read-out: PPI Amax
Source text: The ability of selected compounds of Formula (I) to inhibit the binding of an His-XIAP (BIR2)-avi fusion protein to a GST-RIPK2 fusion protein was quantified employing the TR-FRET-based competition assay as described in the following paragraphs. […]

Need Emax of COc1cc2ncc(-c3cc(C(=O)N[C@@H](C)c4ccn(C)n4)n(C)n3)n2cc1S(=O)(=O)C(C)(C)C [Example 60] , thanks. ≥ 80%

Can you check COc1cc2ncc(-c3cc(C(=O)N[C@H](C)c4ncc(F)cn4)n(C)n3)n2cc1S(=O)(=O)C(C)(C)C [Example 104] next? ≥ 80%

Can you check COc1cc2ncc(-c3cc(C(=O)NCc4cc5ccccn5n4)n(C)n3)n2cc1S(=O)(=O)C(C)(C)C [Example 23] next? ≤ 30%

Can you check COc1cc2ncc(-c3cc(C(=O)NCC4CCCC4)n(C)n3)n2cc1S(=O)(=O)C(C)(C)C [Example 40] next? ≥ 80%
